Reported pIC50 is given for each of the following compounds.
- experimental target: rat α3β4 nAChR (Rattus norvegicus, UniProt P04757+P12392)
- Sequence (P04757 26-499 limits assumed): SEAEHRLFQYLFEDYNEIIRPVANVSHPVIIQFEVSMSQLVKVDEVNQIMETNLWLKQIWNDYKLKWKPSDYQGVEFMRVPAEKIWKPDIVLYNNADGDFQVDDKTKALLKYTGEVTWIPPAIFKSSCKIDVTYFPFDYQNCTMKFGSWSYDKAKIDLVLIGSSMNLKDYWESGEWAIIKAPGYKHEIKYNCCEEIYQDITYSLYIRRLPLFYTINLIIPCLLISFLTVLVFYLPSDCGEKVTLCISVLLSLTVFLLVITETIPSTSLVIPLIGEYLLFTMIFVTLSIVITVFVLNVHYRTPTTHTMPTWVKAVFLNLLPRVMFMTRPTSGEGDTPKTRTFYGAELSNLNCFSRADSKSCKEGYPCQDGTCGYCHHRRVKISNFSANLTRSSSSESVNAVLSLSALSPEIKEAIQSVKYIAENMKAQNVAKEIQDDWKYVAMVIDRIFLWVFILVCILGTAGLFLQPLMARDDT
- Sequence (P12392 21-495 limits assumed): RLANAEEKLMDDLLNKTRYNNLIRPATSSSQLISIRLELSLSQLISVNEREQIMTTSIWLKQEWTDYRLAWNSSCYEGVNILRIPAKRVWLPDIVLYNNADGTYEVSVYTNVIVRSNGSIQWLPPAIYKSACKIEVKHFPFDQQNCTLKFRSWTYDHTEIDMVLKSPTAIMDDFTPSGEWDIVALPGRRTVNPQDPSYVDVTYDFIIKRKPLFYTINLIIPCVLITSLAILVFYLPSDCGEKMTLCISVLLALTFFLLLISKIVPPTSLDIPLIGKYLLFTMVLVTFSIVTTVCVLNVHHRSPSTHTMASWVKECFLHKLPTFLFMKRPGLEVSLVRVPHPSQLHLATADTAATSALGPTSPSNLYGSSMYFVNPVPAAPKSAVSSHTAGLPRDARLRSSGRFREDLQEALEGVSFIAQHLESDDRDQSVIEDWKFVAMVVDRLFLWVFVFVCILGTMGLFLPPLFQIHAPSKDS
- assay notes: cell-based
- condition set: α3β4 IC50 (half-blocking dose)
Peptide text beside a SMILES is read from it.
Would you please state pIC50, meaning minus log10 of the concentration in mol/L, as a bare number?

Field: example entries. Status: answers known.
CSCC[C@@H]1NC(=O)[C@H](C)NC(=O)[C@H](CO)NC(=O)[C@@H]2CSSC[C@H](NC(=O)CN)C(=O)N[C@@H](CSSC[C@@H](C(N)=O)NC(=O)[C@H](CC(=O)O)NC(=O)[C@@H]3CCCN3C(=O)[C@H](CO)NC1=O)C(=O)N[C@@H](CO)C(=O)N[C@@H](Cc1c[nH]cn1)C(=O)N1CCC[C@H]1C(=O)N[C@@H](C(C)C)C(=O)N2 [TxID[I14D]] (HELM PEPTIDE1{G.C.C.S.H.P.V.C.S.A.M.S.P.D.C.[am]}$PEPTIDE1,PEPTIDE1,2:R3-8:R3|PEPTIDE1,PEPTIDE1,3:R3-15:R3$$$V2.0) :: 8.01
CSCC[C@@H]1NC(=O)[C@H](C)NC(=O)[C@H](CO)NC(=O)[C@@H]2CSSC[C@H](NC(=O)CN)C(=O)N[C@@H](CSSC[C@@H](C(N)=O)NC(=O)[C@H](Cc3ccc(O)cc3)NC(=O)[C@@H]3CCCN3C(=O)[C@H](CO)NC1=O)C(=O)N[C@@H](CO)C(=O)N[C@@H](Cc1c[nH]cn1)C(=O)N1CCC[C@H]1C(=O)N[C@@H](C(C)C)C(=O)N2 [TxID[I14Y]] (HELM PEPTIDE1{G.C.C.S.H.P.V.C.S.A.M.S.P.Y.C.[am]}$PEPTIDE1,PEPTIDE1,2:R3-8:R3|PEPTIDE1,PEPTIDE1,3:R3-15:R3$$$V2.0) :: 8.00
CSCC[C@@H]1NC(=O)[C@H](C)NC(=O)[C@H](CO)NC(=O)[C@@H]2CSSC[C@H](NC(=O)CN)C(=O)N[C@@H](CSSC[C@@H](C(N)=O)NC(=O)[C@H](CC(C)C)NC(=O)[C@@H]3CCCN3C(=O)[C@H](CO)NC1=O)C(=O)N[C@@H](CO)C(=O)N[C@@H](Cc1c[nH]cn1)C(=O)N1CCC[C@H]1C(=O)N[C@@H](C(C)C)C(=O)N2 [TxID[I14L]] (HELM PEPTIDE1{G.C.C.S.H.P.V.C.S.A.M.S.P.L.C.[am]}$PEPTIDE1,PEPTIDE1,2:R3-8:R3|PEPTIDE1,PEPTIDE1,3:R3-15:R3$$$V2.0) :: 8.00

Annotate the compound CSCC[C@@H]1NC(=O)[C@H](C)NC(=O)[C@H](CO)NC(=O)[C@@H]2CSSC[C@H](NC(=O)CN)C(=O)N[C@@H](CSSC[C@@H](C(N)=O)NC(=O)[C@H](C)NC(=O)[C@@H]3CCCN3C(=O)[C@H](CO)NC1=O)C(=O)N[C@@H](CO)C(=O)N[C@@H](Cc1c[nH]cn1)C(=O)N1CCC[C@H]1C(=O)N[C@@H](C(C)C)C(=O)N2 [TxID[I14A]] (HELM PEPTIDE1{G.C.C.S.H.P.V.C.S.A.M.S.P.A.C.[am]}$PEPTIDE1,PEPTIDE1,2:R3-8:R3|PEPTIDE1,PEPTIDE1,3:R3-15:R3$$$V2.0) with its measured pIC50. 7.79
